B1: NCK2 (parent)
chain: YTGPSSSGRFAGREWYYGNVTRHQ

- Variants of: B1
- PROCEDURE_SUMMARY: protein stability index of a GFP-peptide fusion (GPS, HEK-293T) (PSI 1-6); higher = more stable;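 further: lentivirally expressed fusions sorted by FACS into six bins by GFP to DsRed ratio, PSI derived from sequencing read proportions per bin multiplied by bin number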
- PARTICULARS: c terminus: a fixed tail appended
Would you kindly list protein stability index for each of these variants?
Give a plain numeric answer without units written out.

For record YTGPSTSGRFAGREWYYGNVTRHQ [S6T] the listed protein stability index is 1.93

Briefly, protein stability index measured for YTGPSSSGRFAGREWYYGNVYRHQ [T21Y] : 1.91

Summary for this variant, YTGPSSSGRFTGREWYYGNVTRHQ [A11T] : protein stability index is 2.3

// protein stability index lookup, variant = YTGPSSSGRHAGREWYYGNVTRHQ [F10H] , result: 2

Summary for this variant, YTGPSSSGRFAMREWYYGNVTRHQ [G12M] : protein stability index is 1.75

For YTGPSSSGRFAGREWYYGNVERHQ [T21E] the variant record lists protein stability index as 2.05

Form: variant = TTGPSSSGRFAGREWYYGNVTRHQ [Y1T] ; protein stability index = 3.08

GET /value?item= YTGPLSSGRFAGREWYYGNVTRHQ [S5L] &field=protein stability index returns 2.56

So, YTGPSSSGRFAGREWYYGNVTPHQ [R22P] ? Its protein stability index was 1.14

Entry under test: YTRPSSSGRFAGREWYYGNVTRHQ [G3R] . Its protein stability index was 2.17

Entry YIGPSSSGRFAGREWYYGNVTRHQ [T2I] ; protein stability index = 1.79

Input YTGPSSSGRFAGMEWYYGNVTRHQ [R13M] . Output protein stability index: 1.63

The value of protein stability index measured for the variant YTGPSSSGRFAGREWLYGNVTRHQ [Y16L] turned out to be 1.59

Form: variant = YTGPSSSPRFAGREWYYGNVTRHQ [G8P] ; protein stability index = 1.66

Quick note, protein stability index for YTGPSHSGRFAGREWYYGNVTRHQ [S6H] landed at 2.15
